molecular target: recombinant homotrimeric HA A/duck/Yangzhou/02/05 H8N4 (Influenza A virus A/duck/Yangzhou/02/2005(H8N4)); assay: protein microarray, purified IgG, trimeric HA; settings: remark: other sources report otherwise
property: Trimeric HA Binding: RLU (RLU)
All answers are understood in RLU, so give the number only.

Take a look at these entries with their results.
INSERT INTO assay_data (binder, obs_value) VALUES
  ('TCN-557 (5081_A04) (antibody, V domains shown) VH: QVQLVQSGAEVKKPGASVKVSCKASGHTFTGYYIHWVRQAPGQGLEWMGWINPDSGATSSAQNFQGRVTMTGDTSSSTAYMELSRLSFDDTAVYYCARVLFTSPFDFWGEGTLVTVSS VL: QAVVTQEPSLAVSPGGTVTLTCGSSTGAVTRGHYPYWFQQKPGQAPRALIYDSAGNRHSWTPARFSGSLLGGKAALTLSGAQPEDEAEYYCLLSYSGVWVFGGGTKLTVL', 27200),
  ('TCN-543 (5081_G23) (antibody, V domains shown) VH: QVHLVQSGAEVRKPGDSVKVSCKTSGYTFSTYPVAWVRQVPGQGLEWMGWISTYNGNTNFAQNFQGRVTLTTDTTTNTAYMEVRSLKFDDTAVYYCARVEGSYRDFWNNQNRFDPWGQGTLVTVSS VL: SYVLTQPPSVSVAPGQTARISCGGSNIGGKSVHWYQQKPGQAPVLVVYDDSGRPSGIPERFSGSNSGDTATLTISRVEAGDEADYFCQVWDNFGGVFGTGTKVTVL', 119),
  ('TCN-545 (5082_I15) (antibody, V domains shown) VH: QVQLQQWGAGLLKPSETLSLSCAVFGGSFSDYYWTWIRQPPGKGLEWIGEIKHSGRTNYNPSLESRVTISVDTSKNQFSLKLSSVTAADTAIYYCARGTDPDTEGYCRSGSCSAFDFWGQGTLVTVSS VL: EIVLTQSPGTLSLSPGERATLSCRASHFVNYRSLAWYQQTPGQVPRLLIYGASTRATGIPDRFSGSGSGTDFTLTISRLEPEDFAVYFCQQYGGSPRYTFGQGTRLEIK', 396);

Trimeric HA Binding: RLU recorded for this binder, TCN-532 (5262_H18) (antibody, V domains shown) VH: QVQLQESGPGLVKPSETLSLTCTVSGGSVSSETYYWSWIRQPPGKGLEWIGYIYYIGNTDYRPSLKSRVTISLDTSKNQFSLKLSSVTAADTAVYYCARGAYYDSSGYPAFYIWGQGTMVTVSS VL: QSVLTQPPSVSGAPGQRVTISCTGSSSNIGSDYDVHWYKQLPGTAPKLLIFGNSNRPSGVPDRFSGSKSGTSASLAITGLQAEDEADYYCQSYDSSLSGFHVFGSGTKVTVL , is 176
